system-under-test: T1, mucin domain-deleted Sudan GP (GPdMuc) (Sudan virus (SUDV), UniProt Q7T9D9 33-632)
T1 construct: also called Sudan GPdMuc; GP(S)dMuc
protocol-summary: BLI competition on Sudan GPdMuc (lower table); competitor 316L
Measured % inhibition of binding accompanies every entry in the list below.
Quick note: give the figure in %, leave out the unit.

1) antibody 241S (antibody, V domains shown) VH: QVQLVQSGSELKKPGASVKVSCKASGYTFTSYTVNWVRQAPGQGLEWMGWINTNTGNPTYAQGFTGRFVFSSDTSVSTAYLQISDLKAEDTAMYYCARHVAYDLWSGHTVTFDHWGQGTLVTVSS VL: QSALTQPPSASGSPGQSVTISCTGTSSDVGAYNYVSWYQQHPGKAPKLIIYEVTKRPSGVPDRFSGSKSGNTASLTVSGLQAEDEADYYCSSKAGGKTYVFGTGTKVTVL :: 10.3
2) antibody 294S (antibody, V domains shown) VH: QVQLQESGPGLVKPSQTLSLTCTVSGGSISSGGYHWSWIRQHPGKGLEWIGNIYYNGRTYYNPSLKSRVTISVDTSENEFSLKLSSVTAADTAVYYCARDRRRPRIGHDYGMDVWGQGTKVIVSS VL: DIQMTQSPSSLSASVGDRVTISCRASQSISNFLNWYQQKPGQAPKLLIYTASNLQSGVPSRFSGSGSGTDFTLTISSLQPEDFATYYCQQIYNTGMYSFGQGTKLEIKR :: 8.76
3) antibody 233S (antibody, V domains shown) VH: EVQLVESGGGLGQPGGSLRLSCAASGFKFKIFGMNWVRQAPGKGLEWVSYISSRSSIIYYADSVKGRFTISRDDATNSLFLQMNSLRDEDTAMYYCVRDYNLIDFVWGSLFDYWGQGILVTVSS VL: AIRMTQSPSSLSASTGDSVTITCRASQNIASYLAWYQQIPGKAPKLLIYVASTLQSGVPSRFSGSGSGTDFTLTISSLQSEDFATYYCQQYYRYPPTFGQGTKVEIK :: 12.5
4) antibody 354S (antibody, V domains shown) VH: QVQLVQSGAEVKKPGASVKVSCKASGYSFASYYIHWVRQAPGQGLEWMGIINPSGGTTSYAQKFQGRVTMTRDTSTSTVYMELSSLGSEDTAVYYCARIVDRVTIYLNGVDNYWGQGTLVTVSS VL: EIVMTQSPATLSVSPGERVTLSCRASQSVSSNLAWFQQTPGQAPRLLIYGASTRASGVPARFSGSGSGTEFTLTISSLQSEDFAVYYCLQYNNWPPGWKYGFGQGTKLEIK :: 17.9

Let us move to another entry and its % inhibition of binding.
# get_value(readout='% inhibition of binding', item= antibody 503S (antibody, V domains shown) VH: QVQLVQSGAEVKKPGASVRVSCKASGYTFTSYYMHWVRQAPGQGLEWMGQINPSGGTTRYERKFQGRITVTRDTSTSTVYLELSSLRSEDTASYFCACLRDKVTYYDLWSGVDSVWGQGTLVTVSS VL: DIQMTQSPSSLSASVGDRVTITCRASQDISTWLAWYQQKPEKAPKSLIYAASTLETGVPSRFSGSGSGTDFTLTISSLQPEDFATYYCEQYNGFPRTFGQGTKLDIK )
23.3
